biological target: UniProtKB P03303; assay: HRV3C protease assay (duplex, SAMDI-MS); assay type: biochemical, HRV; conditions: HRV3C, 30 mins preincubation, class symbols; read-out: HRV IC50
quantity kind: IC50

Completed entries (count: 2):
{"columns": ["molecule", "quantity kind", "reported"],
 "data": [
  ["O=C1NCC[C@H]1C[C@H](NC(=O)[C@@H]1[C@H]2CCC[C@H]2CN1C(=O)c1ccc(-c2ccccc2)[nH]1)C(=O)CO", "IC50", "2 to 20 µM"],
  ["COc1cccc2[nH]c(C(=O)N3C[C@]4(C[C@H]3C(=O)NC(C[C@@H]3CCCNC3=O)C(=O)C(=O)NC3CC3)CC4(F)F)cc12 (stereo partly drawn)", "IC50", "0.2 to 2 µM"]
]}

Now examine the next entry.
Name the recorded IC50 of the molecule listed here: CCOC(=O)c1cc(C(=O)N2C[C@@H]3CCC[C@@H]3[C@H]2C(=O)N[C@@H](C[C@@H]2CCNC2=O)C(=O)CO)[nH]c1C
2 to 20 µM
